Tgt: UniProt:P56817
Sequence (P56817 46-457): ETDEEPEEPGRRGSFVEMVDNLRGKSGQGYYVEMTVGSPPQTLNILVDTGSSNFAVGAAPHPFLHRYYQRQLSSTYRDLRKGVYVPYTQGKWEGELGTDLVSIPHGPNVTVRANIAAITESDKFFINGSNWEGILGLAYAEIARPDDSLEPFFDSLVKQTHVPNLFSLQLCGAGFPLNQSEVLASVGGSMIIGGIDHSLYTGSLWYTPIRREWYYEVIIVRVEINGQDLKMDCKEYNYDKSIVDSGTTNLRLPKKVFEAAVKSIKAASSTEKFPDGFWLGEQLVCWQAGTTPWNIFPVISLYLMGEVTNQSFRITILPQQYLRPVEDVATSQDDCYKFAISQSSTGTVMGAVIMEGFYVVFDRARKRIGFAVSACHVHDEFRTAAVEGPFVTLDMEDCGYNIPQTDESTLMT
Method: BACE1 purified enzyme fluorescence polarization assay
Assay type: biochemical
Parameters: His (C); made in house; host or cells: CHO-K1
Condition: purified enzyme
Method: Purified enzyme inhibition of BACE1, BACE2, CatD and CatE was determined using fluorescence polarization (FP) assays. […] After incubation, reactions were stopped and substrate captured by the addition of 1.5 μM streptavidin, and FP measured with an EnVision plate reader (PerkinElmer, excitation 485 nm, emission 530 nm). […] BACE2 activity was assessed with 0.5 nM recombinant BACE2 (R&D Systems 4097-AS) and the same synthetic substrate used for BACE1, with a 1 h incubation time. […]
pIC50: −log10 of the molar value.
Measured Attribute: pIC50

Entry under review: NC1=N[C@@]2(c3ccc(F)cc3F)CO[C@@H](C(=O)O)C[C@H]2[C@@H](CF)S1 [PF-2696] . Reported pIC50?
< 4.70
